tested on: MDA-MB-231; experiment: Antiproliferative activity against human MDA-MB-231 cells assessed as inhibition of cell growth incubated for 24 hrs by MTT assay; assay type: functional, cell-based; conditions: MDA-MB-231, 24 h
readout_type: IC50 (µM)
# value in µM; strip the unit string

// returns reported IC50 for input COc1ccc([C@@H]2C(=O)c3ccc(OC)cc3[C@H]2c2ccc(OCCN3CCC(C)CC3)cc2)cc1
3.94

====

experiment: Potency index, ratio of test compound IC50 to 5-fluorouracil IC50 for cytotoxicity against HEK293 cells assessed as inhibition of cell growth incubated 1.5 hrs by MTT assay; type: toxicity, cell-based; settings: human, read-out: Ratio IC50
readout_type: selectivity ratio at 1.5 h
Respond numerically, and do not add a unit to the figure.

What value of selectivity ratio at 1.5 h has been reported for the following compound? CCOc1ccc([C@H]2CC(=O)c3cc(OC)c(OC)c(OC)c32)cc1F
1.39

====

test system: MCF7; experiment: Antiproliferative activity against human MCF7 cells assessed as inhibition of cell growth incubated for 24 hrs by MTT assay; type: functional, cell-based; conditions: MCF7, 24 h
readout_type: pIC50
# pIC50: negative log10 of molar concentration; output just the value

Look at this molecule and give its reported pIC50. COc1ccc([C@@H]2C(=O)c3ccc(OC)cc3[C@H]2c2ccc(OCCN3CCC(C)CC3)cc2)cc1
5.15
